- Tested on: luciferase gene expression in HEK 293 cells in response to Comp. 004
- assay protocol: Screen of riboswitch constructs with 12C6-1 variant aptamers (libraries N1-N5) against Comp. 004, luciferase in HEK 293 cells
- Type: cell-based, human
- test settings: library N5 variant aptamers (L5, X16-X21 randomized) of 12C6-1 in riboswitch constructs; in response to Comp. 004 treatment; HEK 293 cells
# Fold (induction of luciferase gene expression) per record follows
Please state the figure in fold; there is no need to write the unit.

**Query** Give its Fold (induction of luciferase gene expression) value. Item: N5_7G8 (DNA CTGGGGAGTCCT; chemistry not given here)
**Result** 775.6

**Query** What about this substance? N5_11B9 (CTGGGGAGTCCT; chemistry not given here)
**Result** 1595.4

**Query** What about this substance? N5_14D10 (CTGGGGAGTCCT; chemistry not given here)
**Result** 950.5

**Query** What about this substance? N5_1D2 (CTGGGGAGTCCT; chemistry not given here)
**Result** 561.3

**Query** What about this substance? N5_2C2 (CTGGGGAGTCCT; chemistry not given here)
**Result** 894.7

**Query** What about this substance? N5_3D8 (CTGGGGAGTCCT; chemistry not given here)
**Result** 824.4

**Query** What about this substance? N5_1G11 (CTGGGGAGTCCT; chemistry not given here)
**Result** 789.0

**Query** What about this substance? N5_1C7 (CTGGGGAGTCCT; chemistry not given here)
**Result** 485.7

**Query** What about this substance? N5_1G8 (CTGGGGAGTCCT; chemistry not given here)
**Result** 888.7

**Query** What about this substance? N5_1G9 (CTGGGGAGTCCT; chemistry not given here)
**Result** 1230.3

----------
- Test system: luciferase gene expression in HEK 293 cells in response to Comp. 004
- assay protocol: Screen of riboswitch constructs with 12C6-1 variant aptamers (libraries N1-N5) against Comp. 004, luciferase in HEK 293 cells
- Type: cell-based, human
- test settings: library N5 variant aptamers (L5, X16-X21 randomized) of 12C6-1 in riboswitch constructs; in response to Comp. 004 treatment; HEK 293 cells
# Fold (induction of luciferase gene expression) per record follows
Please state the figure in fold; there is no need to write the unit.

**Query** Give its Fold (induction of luciferase gene expression) value. Item: N5_1E1 (CTGGGGAGTCCT; chemistry not given here)
**Result** 566.4

**Query** What about this substance? N5_1D4 (CTGGGGAGTCCT; chemistry not given here)
**Result** 522.9

**Query** What about this substance? N5_7D1 (DNA CTGGGGAGTCCT; chemistry not given here)
**Result** 909.3

**Query** What about this substance? N5_7B12 (CTGGGGAGTCCT; chemistry not given here)
**Result** 908.4

**Query** What about this substance? N5_1B9 (CTGGGGAGTCCT; chemistry not given here)
**Result** 941.5

----------
- System: luciferase gene expression in HEK 293 cells in response to Comp. 004
- assay protocol: Screen of riboswitch constructs with 12C6-1 variant aptamers (libraries N1-N5) against Comp. 004, luciferase in HEK 293 cells
- Type: cell-based, human
- test settings: library N5 variant aptamers (L5, X16-X21 randomized) of 12C6-1 in riboswitch constructs; in response to Comp. 004 treatment; HEK 293 cells
measured quantity: Fold (induction of luciferase gene expression) (fold)
Please state the figure in fold; there is no need to write the unit.

substance="N5_3C8 (CTGGGGAGTCCT; chemistry not given here)" experimental_target="luciferase gene expression in HEK 293 cells in response to Comp. 004" uom=fold measurement=835.1
substance="N5_7E11 (DNA CTGGGGAGTCCT; chemistry not given here)" experimental_target="luciferase gene expression in HEK 293 cells in response to Comp. 004" uom=fold measurement=732.1
substance="N5_1H9 (CTGGGGAGTCCT; chemistry not given here)" experimental_target="luciferase gene expression in HEK 293 cells in response to Comp. 004" uom=fold measurement=714.2

**Query** Param readout = Fold (induction of luciferase gene expression); param system = luciferase gene expression in HEK 293 cells in response to Comp. 004; param query = N5_8F3 (DNA CTGGGGAGTCCT; chemistry not given here) ; response: value
**Result** 862.0

**Query** What about this substance? N5_2E6 (CTGGGGAGTCCT; chemistry not given here)
**Result** 685.6

----------
- Test system: N5-12G6 riboswitch
- assay protocol: Firefly luciferase assay, N5-12G6 riboswitch in HEK293 cells
- test settings: Homo sapiens, HEK293, read-out: Fold induction 2 μM (HEK), 12G6 riboswitch, luciferase, HEK293, 2 μM
measured quantity: fold induction at 2 µM
Answer field: number only, no words.

The following molecules have reported results that may help.
smiles=Fc1cncc(NCc2cc3nccnc3cc2Cl)c1N1CCNCC1 experimental_target="N5-12G6 riboswitch" measurement=12.8
smiles=Cc1cncc(NCc2cc(F)c3nccnc3c2)c1N1CCNCC1 experimental_target="N5-12G6 riboswitch" measurement=66.4
smiles=c1cc(OC2CNC2)c(NCc2ccc3nccnc3c2)cn1 experimental_target="N5-12G6 riboswitch" measurement=43.2
smiles=Clc1cc2nccnc2cc1CNc1cnccc1N1CCCNCC1 experimental_target="N5-12G6 riboswitch" measurement=28.4
smiles=C[C@H]1CN(c2ccncc2NCc2cc3nccnc3cc2Cl)CCN1 experimental_target="N5-12G6 riboswitch" measurement=22.3
smiles=Cc1c(CNc2cnccc2N2CCNCC2)cc2nccnc2c1C experimental_target="N5-12G6 riboswitch" measurement=2.9
smiles=Clc1cncc(NCc2ccc3nccnc3c2)c1N1CCCNCC1 experimental_target="N5-12G6 riboswitch" measurement=30.7
smiles=C[C@H]1CN(c2ccncc2NCc2cc(Cl)c3nccnc3c2)CCN1 experimental_target="N5-12G6 riboswitch" measurement=2.2

**Query** Param readout = fold induction at 2 µM; param system = N5-12G6 riboswitch; param query = Fc1cc(N2CCNCC2)c(NCc2ccc3nccnc3c2)cn1 ; response: value
**Result** 35.1

**Query** What about this molecule? Fc1c(CNc2cnccc2N2CCNCC2)ccc2nccnc12
**Result** 3.4

----------
- Tested on: luciferase gene expression in HEK 293 cells in response to Comp. 004
- assay protocol: Screen of riboswitch constructs with 12C6-1 variant aptamers (libraries N1-N5) against Comp. 004, luciferase in HEK 293 cells
- Format: cell-based, human
- test settings: library N2 variant aptamers (J2-3, P3-J3-3a, J3a-2 randomized) of 12C6-1 in riboswitch constructs; in response to Comp. 004; HEK 293 cells
# Fold (induction of luciferase gene expression) per record follows
Please state the figure in fold; there is no need to write the unit.

The following substances have reported results that may help.
substance="N2_2A9 (CTGGGGAGTCCTTCATGC; chemistry not given here)" uom=fold measurement=1.1
substance="N2_2G1 (DNA CTGGGGAGTCCTTCATGC; chemistry not given here)" uom=fold measurement=1.7
substance="N2_2H2 (CTGGGGAGTCCTTCATGC; chemistry not given here)" uom=fold measurement=0.8
substance="N2_2H11 (CTGGGGAGTCCTTCATGC; chemistry not given here)" uom=fold measurement=1.2
substance="N2_2E7 (DNA CTGGGGAGTCCTTCATGC; chemistry not given here)" uom=fold measurement=1.1

**Query** Give its Fold (induction of luciferase gene expression) value. Item: N2_2B9 (CTGGGGAGTCCTTCATGC; chemistry not given here)
**Result** 1.1

**Query** What about this substance? N2_2B8 (CTGGGGAGTCCTTCATGC; chemistry not given here)
**Result** 1.1

**Query** What about this substance? N2_2D2 (DNA CTGGGGAGTCCTTCATGC; chemistry not given here)
**Result** 1.1

**Query** What about this substance? N2_2A5 (CTGGGGAGTCCTTCATGC; chemistry not given here)
**Result** 1.0

**Query** What about this substance? N2_2D8 (DNA CTGGGGAGTCCTTCATGC; chemistry not given here)
**Result** 1.1

**Query** What about this substance? N2_2D9 (DNA CTGGGGAGTCCTTCATGC; chemistry not given here)
**Result** 1.0

**Query** What about this substance? N2_2H9 (CTGGGGAGTCCTTCATGC; chemistry not given here)
**Result** 0.9

**Query** What about this substance? N2_2F8 (DNA CTGGGGAGTCCTTCATGC; chemistry not given here)
**Result** 1.0

**Query** What about this substance? N2_2G4 (DNA CTGGGGAGTCCTTCATGC; chemistry not given here)
**Result** 1.1

**Query** What about this substance? N2_2A1 (CTGGGGAGTCCTTCATGC; chemistry not given here)
**Result** 1.0

**Query** What about this substance? N2_2E6 (DNA CTGGGGAGTCCTTCATGC; chemistry not given here)
**Result** 0.9

**Query** What about this substance? N2_2C6 (CTGGGGAGTCCTTCATGC; chemistry not given here)
**Result** 0.9

**Query** What about this substance? N2_2A7 (CTGGGGAGTCCTTCATGC; chemistry not given here)
**Result** 0.9

**Query** What about this substance? N2_2C4 (CTGGGGAGTCCTTCATGC; chemistry not given here)
**Result** 2.0

**Query** What about this substance? N2_2G7 (DNA CTGGGGAGTCCTTCATGC; chemistry not given here)
**Result** 1.0

**Query** What about this substance? N2_2D4 (DNA CTGGGGAGTCCTTCATGC; chemistry not given here)
**Result** 0.8

**Query** What about this substance? N2_2F4 (DNA CTGGGGAGTCCTTCATGC; chemistry not given here)
**Result** 1.2

**Query** What about this substance? N2_2D1 (CTGGGGAGTCCTTCATGC; chemistry not given here)
**Result** 1.1

**Query** What about this substance? N2_2B11 (CTGGGGAGTCCTTCATGC; chemistry not given here)
**Result** 1.2

**Query** What about this substance? N2_2A3 (CTGGGGAGTCCTTCATGC; chemistry not given here)
**Result** 0.8

The measured values listed here are drawn from patent US20250101436A1.
